TARGET ENTITY: AMPK
ASSAY PROCEDURE: AMPK activation, enzyme-linked immunosorbent assay
Format: biochemical
RECORDED CONDITIONS: compounds of Table 5 (Table 10)
Experimental: Compounds of Table 1 were assayed for their ability to activate AMPK using an enzyme-linked immunosorbent assay. Compounds of Table 2 were assayed for their ability to activate AMPK using an enzyme-linked immunosorbent assay. Compounds of Table 3 were assayed for their ability to activate AMPK using an enzyme-linked immunosorbent assay. Compounds of Table 4 were assayed for their ability to activate AMPK using an enzyme-linked immunosorbent assay. […]
pEC50: −log10 of the molar value.
METRIC: pEC50

Report pEC50 for CC(C)(C)OC(=O)NCCCNC(=O)c1ccc(OC2CCN(Cc3ccc(C(F)(F)F)cc3)CC2)cc1 please.
> 6.00

Report pEC50 for O=C(c1ccc(OC2CCN(Cc3ccccc3)CC2)cc1)N1CCN(Cc2ccccn2)CC1 please.
4.70 to 5.00

Report pEC50 for O=C(NC1CCN(Cc2ccc(Cl)cc2)CC1)c1ccc(OC2CCN(Cc3ccc(F)c(F)c3)CC2)c(F)c1 please.
> 6.00

Report pEC50 for O=C(NC1CCN(C(=O)c2ccncc2)CC1)c1ccc(OC2CCN(c3ccc(C(F)(F)F)cc3)CC2)c(F)c1 please.
> 6.00

Report pEC50 for O=C(NC1CCN(Cc2ccccc2)CC1)c1cc(Cl)c(OC2CCN(Cc3ccc(Cl)cc3)CC2)c(Cl)c1 please.
> 6.00

Report pEC50 for Cc1ccc(CN2CCC(Oc3ccc(C(=O)NC4CCN(Cc5ccc(Cl)cc5)CC4)cc3F)CC2)cc1 please.
> 6.00

Report pEC50 for COc1ccc(CN2CCC(Oc3ccc(C(=O)NCCCNC(=O)OC(C)(C)C)cc3Cl)CC2)cc1 please.
5.00 to 6.00

Report pEC50 for O=C(NC1CCN(C(=O)c2ccc(F)cc2)CC1)c1ccc(OC2CCN(c3ccc(C(F)(F)F)cc3)CC2)c(F)c1 please.
> 6.00

Report pEC50 for CC(C)(C)OC(=O)N1CCC(Oc2ccc(C(=O)NC3CCN(Cc4ccccc4)CC3)cc2Cl)CC1 please.
5.00 to 6.00

Report pEC50 for O=C(NC1CCN(Cc2ccccc2)CC1)c1ccc(OC2CCN(Cc3cccc(C(F)(F)F)c3)CC2)c(Cl)c1 please.
> 6.00

Report pEC50 for CC(c1ccccc1)N1CCC(Oc2ccc(C(=O)NC3CCN(Cc4ccccc4)CC3)cc2F)CC1 (stereo not shown) please.
5.00 to 6.00

Report pEC50 for N#Cc1ccc(CN2CCC(Oc3ccc(C(=O)NC4CCN(Cc5ccc(Cl)cc5)CC4)cc3F)CC2)cc1 please.
> 6.00

Report pEC50 for O=C(NC1CCN(Cc2ccccc2)CC1)c1ccc(OC2CCN(Cc3ccc(F)cc3)CC2)c(F)c1 please.
> 6.00

Report pEC50 for O=C(NC1CCN(Cc2ccccc2)CC1)c1ccc(OC2CCN(Cc3ccncc3)CC2)c(Cl)c1 please.
> 6.00

Report pEC50 for COc1cc(C(=O)NC2CCN(Cc3ccccc3)CC2)ccc1OC1CCN(Cc2ccccc2)CC1 please.
> 6.00

Report pEC50 for O=C(NC1CCN(Cc2ccccc2)CC1)c1ccc(OC2CCN(c3ccc(C(F)(F)F)cc3)CC2)cc1Cl please.
> 6.00

* * *

TARGET ENTITY: AMPK
ASSAY PROCEDURE: AMPK activation, enzyme-linked immunosorbent assay
Type: biochemical
RECORDED CONDITIONS: compounds of Table 1 (Table 6)
Would you kindly list EC50 for each of these compounds?

Report EC50 for N#Cc1ccc(CN2CCC(NC(=O)c3sc4cc(OC5CCN(c6ccc(C(F)(F)F)cc6)CC5)ccc4c3Cl)CC2)cc1 please.
< 0.1 µM

Report EC50 for O=C(NC1CCN(Cc2cccnc2)CC1)c1cc2ccc(OC3CCN(c4ccc(C(F)(F)F)cc4)CC3)cc2o1 please.
< 0.1 µM

Report EC50 for O=C(NC1CCN(Cc2ccncc2)CC1)c1ccnc(OC2CCN(c3ccc(C(F)(F)F)cc3)CC2)c1 please.
0.5 to 1 µM

Report EC50 for O=C(NC1CCNCC1)c1cc2ccc(OC3CCN(c4ccc(OC(F)(F)F)cc4)CC3)cc2o1 please.
0.1 to 0.5 µM

Report EC50 for N#Cc1ccc(CN2CCC(NC3CCc4cc(OC5CCN(c6ccc(C(F)(F)F)cc6)CC5)ccc43)CC2)cc1 (stereo not shown) please.
< 0.1 µM

Report EC50 for CC(C)(C)OC(=O)N1CCC(NC2CCc3cc(OC4CCN(c5ccc(C(F)(F)F)cc5)CC4)ccc32)CC1 (stereo not shown) please.
0.1 to 0.5 µM

Report EC50 for Cc1c(C(=O)NC2CCN(Cc3ccncc3)CC2)oc2cc(OC3CCN(c4ccc(C(F)(F)F)cc4)CC3)ccc12 please.
< 0.1 µM

* * *

TARGET ENTITY: AMPK
ASSAY PROCEDURE: AMPK activation, enzyme-linked immunosorbent assay
Assay type: biochemical
RECORDED CONDITIONS: compounds of Table 5 (Table 10)
pEC50: −log10 of the molar value.
METRIC: pEC50

Report pEC50 for COc1cc(C(=O)NC2CCN(Cc3ccccc3)CC2)ccc1OC1CCN(CCCc2ccccc2)CC1 please.
> 6.00

Report pEC50 for O=C(NC1CCN(Cc2cccnc2)CC1)c1ccc(OC2CCN(c3ccc(C(F)(F)F)cc3)CC2)c(F)c1 please.
> 6.00

Report pEC50 for CN1CCC(NC(=O)c2ccc(OC3CCN(Cc4ccc(C(F)(F)F)cc4)CC3)c(Cl)c2)CC1 please.
5.00 to 6.00

Report pEC50 for CC(C)(C)OC(=O)N1CCC(Oc2ccc(C(=O)NC3CCN(Cc4ccccc4)CC3)cc2F)CC1 please.
5.00 to 6.00

Report pEC50 for N#Cc1ccc(CN2CCC(Oc3ccc(C(=O)NC4CCN(Cc5ccccc5)CC4)cc3F)CC2)cc1 please.
> 6.00

Report pEC50 for O=C(NC1CCN(Cc2ccccc2)CC1)c1ccc(OC2CCN(Cc3ccncc3)CC2)c(F)c1 please.
> 6.00

Report pEC50 for O=C(c1ccc(OC2CCN(Cc3ccccc3)CC2)cc1)N1CCN(c2ccccc2)CC1 please.
4.30 to 4.70

Report pEC50 for O=C(NC1CCN(Cc2ccc(Cl)cc2)CC1)c1ccc(OC2CCN(Cc3ccc(Cl)c(Cl)c3)CC2)c(F)c1 please.
> 6.00

* * *

TARGET ENTITY: AMPK
ASSAY PROCEDURE: AMPK activation, enzyme-linked immunosorbent assay
Type: biochemical
RECORDED CONDITIONS: compounds of Table 2 (Table 7)
METRIC: EC50

Report EC50 for O=C(NC1CCN(Cc2ccccc2)CC1)c1ccc2[nH]c3c(c2c1)CN(S(=O)(=O)c1ccc(C(F)(F)F)cc1)CC3 [2-19] please.
> 100 µM

Report EC50 for O=C(NC1CCN(Cc2ccncc2)CC1)c1ccc2[nH]c3c(c2c1)CN(Cc1ccccc1)CC3 [2-7] please.
5 to 10 µM

Report EC50 for N#Cc1ccc(CN2CCC(NC(=O)c3ccc4[nH]c5c(c4c3)CN(Cc3ccc(C(N)=O)cc3)CC5)CC2)cc1 [2-44] please.
10 to 50 µM

Report EC50 for O=C(NC1CCN(Cc2cocn2)CC1)c1ccc2[nH]c3c(c2c1)CN(Cc1ccc(C(F)(F)F)cc1)CC3 [2-54] please.
< 0.5 µM

Report EC50 for N#Cc1ccc(CN2CCC(NC(=O)c3ccc4[nH]c5c(c4c3)CN(C(=O)OCc3ccccc3)CC5)CC2)cc1 [2-1] please.
1 to 5 µM

Report EC50 for NC(=O)c1ccc(CN2CCc3[nH]c4ccc(C(=O)NC5CCN(Cc6ccncc6)CC5)cc4c3C2)cc1 [2-45] please.
> 100 µM

Report EC50 for O=C(NC1CCN(CCc2ccccc2)CC1)c1ccc2[nH]c3c(c2c1)CN(Cc1ccc(C(F)(F)F)cc1)CC3 [2-14] please.
< 0.5 µM

* * *

TARGET ENTITY: AMPK
ASSAY PROCEDURE: AMPK activation, enzyme-linked immunosorbent assay
Type: biochemical
RECORDED CONDITIONS: compounds of Table 2 (Table 7)
METRIC: EC50

Report EC50 for O=C(NC1CCN(C(=O)c2ccncc2)CC1)c1ccc2[nH]c3c(c2c1)CN(Cc1ccc(C(F)(F)F)cc1)CC3 please.
0.5 to 1 µM

Report EC50 for O=C(NC1CCN(Cc2ccc(C(F)(F)F)cc2)CC1)c1ccc2[nH]c3c(c2c1)CN(Cc1ccccc1)CC3 please.
1 to 5 µM

Report EC50 for CC(=O)n1c2c(c3cc(C(=O)NC4CCN(Cc5cccnc5)CC4)ccc31)CN(Cc1ccc(C(F)(F)F)cc1)CC2 please.
1 to 5 µM

Report EC50 for O=C(NC1CCN(C(=O)c2ccc(F)cc2)CC1)c1ccc2[nH]c3c(c2c1)CN(c1ccc(F)cc1)CC3 please.
10 to 50 µM

Report EC50 for N#Cc1ccc(CN2CCC(NC(=O)c3ccc4[nH]c5c(c4c3)CN(Cc3ccc(C(F)(F)F)cc3)CC5)CC2)cc1 please.
< 0.5 µM

Report EC50 for NC(=O)c1ccc(CN2CCC(NC(=O)c3ccc4[nH]c5c(c4c3)CN(Cc3ccc(C(N)=O)cc3)CC5)CC2)cc1 please.
> 100 µM

Report EC50 for N#Cc1ccc(CN2CCC(NC(=O)c3ccc4[nH]c5c(c4c3)CN(S(=O)(=O)c3ccc(C#N)cc3)CC5)CC2)cc1 please.
10 to 50 µM

Report EC50 for O=C(NC1CCN(Cc2cccnc2)CC1)c1ccc2[nH]c3c(c2c1)CN(c1ccc(F)cc1)CC3 please.
> 100 µM

Report EC50 for Cn1cnc(CN2CCC(NC(=O)c3ccc4[nH]c5c(c4c3)CN(Cc3ccc(C(F)(F)F)cc3)CC5)CC2)c1 please.
10 to 50 µM

Report EC50 for CC(C)(C)OC(=O)N1CCC(NC(=O)c2ccc3[nH]c4c(c3c2)CN(Cc2ccc(C(N)=O)cc2)CC4)CC1 please.
> 100 µM

Report EC50 for O=C(NC1CCN(Cc2ccccc2)CC1)c1ccc2[nH]c3c(c2c1)CN(C(=O)OCc1ccccc1)CC3 please.
10 to 50 µM

Report EC50 for O=C(NC1CCN(S(=O)(=O)c2ccc(Cl)cc2)CC1)c1ccc2[nH]c3c(c2c1)CN(Cc1ccc(C(F)(F)F)cc1)CC3 please.
1 to 5 µM

Report EC50 for CC(C)(C)OC(=O)N1CCC(NC(=O)c2ccc3[nH]c4c(c3c2)CN(C(=O)OCc2ccccc2)CC4)CC1 please.
10 to 50 µM

Report EC50 for O=C(NC1CCN(C(=O)c2ccc(C(F)(F)F)cc2)CC1)c1ccc2[nH]c3c(c2c1)CN(c1ccc(F)cc1)CC3 please.
10 to 50 µM

Report EC50 for O=C(NC1CCN(Cc2ccc(C(F)(F)F)cc2)CC1)c1ccc2[nH]c3c(c2c1)CN(Cc1ccc(C(F)(F)F)cc1)CC3 please.
< 0.5 µM

Report EC50 for N#Cc1ccc(CN2CCC(NC(=O)c3ccc4[nH]c5c(c4c3)CN(Cc3ccc(F)cc3)CC5)CC2)cc1 please.
< 0.5 µM

Report EC50 for O=C(NC1CCN(C(=O)c2cccnc2)CC1)c1ccc2[nH]c3c(c2c1)CN(c1ccc(F)cc1)CC3 please.
> 100 µM

Report EC50 for O=C(NC1CCN(c2ccc(F)cc2)CC1)c1ccc2[nH]c3c(c2c1)CN(Cc1ccc(C(F)(F)F)cc1)CC3 please.
< 0.5 µM

Report EC50 for Cn1c2c(c3cc(C(=O)NC4CCN(Cc5ccc(C#N)cc5)CC4)ccc31)CN(Cc1ccc(C(F)(F)F)cc1)CC2 please.
< 0.5 µM

Report EC50 for O=C(NC1CCN(Cc2ccncc2)CC1)c1ccc2[nH]c3c(c2c1)CN(Cc1ccc(C(F)(F)F)cc1)CC3 please.
< 0.5 µM

Report EC50 for N#Cc1ccc(CN2CCC(NC(=O)c3ccc4[nH]c5c(c4c3)CN(Cc3ccccc3)CC5)CC2)cc1 please.
1 to 5 µM

Report EC50 for O=C(NC1CCN(S(=O)(=O)c2cccc(C(F)(F)F)c2)CC1)c1ccc2[nH]c3c(c2c1)CN(Cc1ccc(C(F)(F)F)cc1)CC3 please.
1 to 5 µM

Report EC50 for CC(C)(C)OC(=O)N1CCC(NC(=O)c2ccc3[nH]c4c(c3c2)CN(c2ccc(F)cc2)CC4)CC1 please.
10 to 50 µM

Report EC50 for Cn1c2c(c3cc(C(=O)NC4CCN(Cc5cccnc5)CC4)ccc31)CN(Cc1ccc(C(F)(F)F)cc1)CC2 please.
1 to 5 µM

Report EC50 for O=C(NC1CCN(C(=O)Nc2ccc(C(F)(F)F)cc2)CC1)c1ccc2[nH]c3c(c2c1)CN(Cc1ccc(C(F)(F)F)cc1)CC3 please.
1 to 5 µM

Report EC50 for NC(=O)c1ccc(CN2CCc3[nH]c4ccc(C(=O)NC5CCN(C(=O)c6ccncc6)CC5)cc4c3C2)cc1 please.
> 100 µM

Report EC50 for NC(=O)c1ccc(CN2CCc3[nH]c4ccc(C(=O)NC5CCN(Cc6ccc(C(F)(F)F)cc6)CC5)cc4c3C2)cc1 please.
10 to 50 µM

Report EC50 for O=C(NC1CCN(Cc2ccc(C(F)(F)F)cc2)CC1)c1ccc2[nH]c3c(c2c1)CN(Cc1ccc(F)cc1)CC3 please.
0.5 to 1 µM

Report EC50 for N#Cc1ccc(NC(=O)N2CCC(NC(=O)c3ccc4[nH]c5c(c4c3)CN(Cc3ccc(C(F)(F)F)cc3)CC5)CC2)cc1 please.
1 to 5 µM
